TGT: Delta-type opioid receptor (Rattus norvegicus)
Sequence (P33533 whole entry): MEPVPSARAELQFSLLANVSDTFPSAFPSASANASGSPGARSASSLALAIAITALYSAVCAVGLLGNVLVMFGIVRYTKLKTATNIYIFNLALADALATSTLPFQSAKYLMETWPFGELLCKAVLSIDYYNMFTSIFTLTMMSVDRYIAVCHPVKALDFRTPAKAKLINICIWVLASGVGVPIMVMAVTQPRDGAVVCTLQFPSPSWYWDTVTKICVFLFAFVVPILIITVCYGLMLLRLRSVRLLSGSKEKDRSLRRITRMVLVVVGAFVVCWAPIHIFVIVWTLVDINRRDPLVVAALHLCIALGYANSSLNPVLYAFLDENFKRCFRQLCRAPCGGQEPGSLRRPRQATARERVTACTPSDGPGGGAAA
ASSAY PROCEDURE: Tested for binding affinity towards delta receptor in rat brain homogenates using [3H]D-Ala2-[…]-enkephalin as radioligand
Type: tissue-based
ENDPOINT: pKi
Units for pKi: none; it is -log10 of a concentration expressed in mol/L.

Q: What value of pKi has been recorded for this entry: CC1CN(C[C@H](Cc2ccccc2)C(=O)NCC(=O)O)CCC1(C)c1cccc(O)c1 (stereo partly specified)
Ans: 8.36

* * *

TGT: UniProtKB P41144
ASSAY PROCEDURE: Tested for binding affinity towards kappa receptor in presence of [3H]EKC radioligand at 100 nM
ENDPOINT: Specific Displacement (%)
Kindly provide the numeric value in % only, without the unit symbol.

Below: 5 molecules and their reported Specific Displacement.
MOLECULE	UNIT TAG	Specific Displacement
CC(C)COC(=O)CNC(=O)[C@H](Cc1ccccc1)CN1CC[C@@](C)(c2cccc(O)c2)[C@@H](C)C1	%	0
CC(C)COC(=O)CNC(=O)C(Cc1ccccc1)CN1CCC(C)(c2cccc(O)c2)C(C)C1 (racemic)	%	16
CC(C)COC(=O)CNC(=O)[C@@H](Cc1ccccc1)CN1CCC(C)(c2cccc(O)c2)C(C)C1 (single isomer, unassigned)	%	55
CC(C)COC(=O)CNC(=O)[C@H](Cc1ccccc1)CN1CC[C@](C)(c2cccc(O)c2)[C@H](C)C1	%	34
C[C@H]1CN(CC(Cc2ccccc2)C(=O)NCC(=O)O)CC[C@@]1(C)c1cccc(O)c1 (stereo partly specified)	%	53

For the next question, use this molecule.
Q: Hi! What's the reported Specific Displacement for C[C@H]1CN(CC(Cc2ccccc2)C(=O)O)CC[C@@]1(C)c1cccc(O)c1 (stereo partly specified) on UniProtKB P41144?
Ans: 15

* * *

Catalogue of molecules with associated AD50
System: Mus musculus
ASSAY PROCEDURE: Tested for reduction in the analgesic response to morphine after subcutaneous administration of 1.25 mg/kg in abdominal stretching assay
Format: functional, Abdomen
Give a bare numeral; the unit mg/kg is implied.

Answered cases to consult:
MOLECULE	ENDPOINT	ENDPOINT VALUE
C=CCN1CC[C@]23c4c5ccc(O)c4O[C@H]2C(=O)CC[C@@]3(O)[C@H]1C5	AD50	0.08
CC1CN(C[C@H](Cc2ccccc2)C(=O)NCC(=O)O)CCC1(C)c1cccc(O)c1 (stereo partly specified)	AD50	9

Kindly review the next molecule as well.
Q: Form field: reported AD50 of CC(C)COC(=O)CNC(=O)[C@H](Cc1ccccc1)CN1CC[C@@](C)(c2cccc(O)c2)[C@@H](C)C1
Ans: 29.6

* * *

// endpoint Ki / system Kappa-type opioid receptor (Cavia porcellus, UniProt P41144)
Record the result as a number with its unit.

COMPOUND	Ki
CC1CN(C[C@H](Cc2ccccc2)C(=O)NCC(=O)O)CCC1(C)c1cccc(O)c1 (some centres not stated)	40 nM

Here is another compound to look at.
Q: Recorded Ki for CC(C)COC(=O)CNC(=O)[C@@H](Cc1ccccc1)CN1CC[C@@](C)(c2cccc(O)c2)[C@@H](C)C1 , please?
Ans: 23 nM

* * *

Listing: ED50 of selected molecules
System: Mus musculus
ASSAY PROCEDURE: Tested for effective dose required to produce diarrhea in morphine dependent mice after peroral administration
Type: functional
CONDITION INFO: Mus musculus, po; read-out: ED50
Write the value in mg/kg as a bare number.

The examples below pair each entry with its known result.
MOLECULE	ENDPOINT VALUE
CC1CN(C[C@H](Cc2ccccc2)C(=O)NCC(=O)O)CCC1(C)c1cccc(O)c1 (stereo partly specified)	0.84
CC(C)COC(=O)CNC(=O)[C@@H](Cc1ccccc1)CN1CCC(C)(c2cccc(O)c2)C(C)C1 (single isomer, unassigned)	1.7
C[C@H]1CN(CC(Cc2ccccc2)C(=O)NCC(=O)O)CC[C@@]1(C)c1cccc(O)c1 (stereo partly specified)	2

Continue with the molecule presented below.
Q: Give the reported ED50 for CC(C)COC(=O)CNC(=O)C(Cc1ccccc1)CN1CCC(C)(c2cccc(O)c2)C(C)C1 (racemic) (system: Mus musculus).
Ans: 1.1

* * *

TGT: Kappa-type opioid receptor (Cavia porcellus) (UniProt P41144)
Sequence (P41144 whole entry): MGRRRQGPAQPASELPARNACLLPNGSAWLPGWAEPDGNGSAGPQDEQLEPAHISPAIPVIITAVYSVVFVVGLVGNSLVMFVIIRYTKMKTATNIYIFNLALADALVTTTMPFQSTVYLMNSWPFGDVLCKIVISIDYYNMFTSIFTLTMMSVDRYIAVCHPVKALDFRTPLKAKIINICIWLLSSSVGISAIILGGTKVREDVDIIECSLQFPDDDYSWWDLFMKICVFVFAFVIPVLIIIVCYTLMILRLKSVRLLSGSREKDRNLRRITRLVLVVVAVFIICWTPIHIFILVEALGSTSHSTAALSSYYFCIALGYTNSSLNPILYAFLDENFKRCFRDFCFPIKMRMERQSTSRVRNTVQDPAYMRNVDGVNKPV
ASSAY PROCEDURE: Tested for binding affinity towards kappa receptor in presence of [3H]EKC radioligand at 10 nM
ENDPOINT: Specific Displacement (%)
Just the number please, in %, no unit attached.

COMPOUND	Specific Displacement [%]
CC(C)COC(=O)CNC(=O)[C@H](Cc1ccccc1)CN1CC[C@@](C)(c2cccc(O)c2)[C@@H](C)C1	0
CC(C)COC(=O)CNC(=O)[C@H](Cc1ccccc1)CN1CC[C@](C)(c2cccc(O)c2)[C@H](C)C1	0
CC(C)COC(=O)CNC(=O)[C@@H](Cc1ccccc1)CN1CCC(C)(c2cccc(O)c2)C(C)C1 (single isomer, unassigned)	4

Q: Would you kindly share the measured Specific Displacement for C[C@H]1CN(CC(Cc2ccccc2)C(=O)O)CC[C@@]1(C)c1cccc(O)c1 (stereo partly specified) ?
Ans: 0

Q: And for CC(C)COC(=O)CNC(=O)C(Cc1ccccc1)CN1CCC(C)(c2cccc(O)c2)C(C)C1 (racemic) ?
Ans: 7

Q: Then what about the compound C[C@H]1CN(CC(Cc2ccccc2)C(=O)NCC(=O)O)CC[C@@]1(C)c1cccc(O)c1 (stereo partly specified) ?
Ans: 23

* * *

TGT: Mu-type opioid receptor (Rattus norvegicus)
Sequence (P33535 whole entry): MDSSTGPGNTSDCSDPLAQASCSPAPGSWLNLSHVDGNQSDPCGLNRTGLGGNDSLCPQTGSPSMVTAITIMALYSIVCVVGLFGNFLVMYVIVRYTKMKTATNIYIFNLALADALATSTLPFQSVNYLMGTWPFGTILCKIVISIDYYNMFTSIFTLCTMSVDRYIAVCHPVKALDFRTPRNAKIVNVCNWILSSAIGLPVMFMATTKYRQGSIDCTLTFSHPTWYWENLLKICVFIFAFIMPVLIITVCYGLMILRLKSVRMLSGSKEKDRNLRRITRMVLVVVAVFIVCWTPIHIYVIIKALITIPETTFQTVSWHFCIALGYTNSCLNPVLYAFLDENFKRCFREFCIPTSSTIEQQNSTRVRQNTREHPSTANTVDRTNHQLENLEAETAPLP
ASSAY PROCEDURE: Tested for binding affinity towards mu receptor in presence of [3H]NAL radioligand
ENDPOINT: pKi
Notebook: values listed as pKi are -log10 of the concentration (mol/L).

Known pKi results, listed for orientation:
MOLECULE	ENDPOINT	ENDPOINT VALUE
CC(C)COC(=O)CNC(=O)C(Cc1ccccc1)CN1CCC(C)(c2cccc(O)c2)C(C)C1 (racemic)	pKi	8.40
CC(C)COC(=O)CNC(=O)[C@@H](Cc1ccccc1)CN1CCC(C)(c2cccc(O)c2)C(C)C1 (single isomer, unassigned)	pKi	7.72
CC(C)COC(=O)CNC(=O)[C@@H](Cc1ccccc1)CN1CC[C@@](C)(c2cccc(O)c2)[C@@H](C)C1	pKi	8.26

Q: Query: pKi; subject: CC1CN(C[C@H](Cc2ccccc2)C(=O)NCC(=O)O)CCC1(C)c1cccc(O)c1 (some centres undefined)
Ans: 9.11

* * *

Test system: Mus musculus
ASSAY PROCEDURE: Tested for reduction in the analgesic response to morphine after subcutaneous administration of 1.25 mg/kg in abdominal stretching assay
Type: functional, Abdomen
ENDPOINT: AD50

Q: Request the reported AD50 associated with CC(C)COC(=O)CNC(=O)[C@H](Cc1ccccc1)CN1CC[C@](C)(c2cccc(O)c2)[C@H](C)C1
Ans: >40 mg/kg

Q: Another compound to check: CC(C)COC(=O)CNC(=O)C(Cc1ccccc1)CN1CCC(C)(c2cccc(O)c2)C(C)C1 (racemic)
Ans: >40 mg/kg

Q: Please answer likewise for C[C@H]1CN(CC(Cc2ccccc2)C(=O)NCC(=O)O)CC[C@@]1(C)c1cccc(O)c1 (stereo partly drawn)
Ans: >40 mg/kg

Ref: ChEMBL document CHEMBL1127583
